# PROTOCOL DESCRIPTION: self-splicing fitness, log relative to wild type (ln ratio); higher = more splicing; Tetrahymena group I intron in knt gene, E. coli kanamycin selection, DiMSum; sequences stand for … in CUCUCU…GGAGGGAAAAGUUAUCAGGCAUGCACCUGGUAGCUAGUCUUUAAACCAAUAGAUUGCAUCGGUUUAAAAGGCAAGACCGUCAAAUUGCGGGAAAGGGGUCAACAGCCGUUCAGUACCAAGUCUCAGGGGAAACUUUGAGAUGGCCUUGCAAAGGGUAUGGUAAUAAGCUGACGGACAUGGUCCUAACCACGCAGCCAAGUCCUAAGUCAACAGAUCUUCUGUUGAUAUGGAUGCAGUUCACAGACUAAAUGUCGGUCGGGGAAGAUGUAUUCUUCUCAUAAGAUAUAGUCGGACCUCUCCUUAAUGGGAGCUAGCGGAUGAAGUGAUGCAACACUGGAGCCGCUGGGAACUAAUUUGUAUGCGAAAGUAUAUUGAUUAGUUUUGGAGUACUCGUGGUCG;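 also: selection with 25 µg/mL kanamycin versus none on LB agar overnight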
# REPORTED CONDITIONS: 37 °C
Could you please report measured self-splicing fitness (ln) for the items listed next?

Task item: Fill in: self-splicing fitness (ln) of GCUGAGCAAUAUUACGAGUA is ___
Reply: -1.72

Task item: Which self-splicing fitness (ln) value belongs to GAACAGCAAUAUUACGAGGU ?
Reply: -1.71

Task item: Which measured self-splicing fitness (ln) value corresponds to GGAGAGCAAUAUUACGGCCA ?
Reply: -1.21

Task item: If you can, please state the reported self-splicing fitness (ln) value of CGCGAGCAAUAUUACGUAAG .
Reply: -1.73

Task item: Look up self-splicing fitness (ln): UUCUAGCAAUAUUACGACUC
Reply: -0.392

Task item: I am curious: what self-splicing fitness (ln) value has been reported for CAUCAGCAAUAUUACGGAAC ?
Reply: -2.54

Task item: Consider the sequence shown here: UGCCAGCAAUAUUACGAUUC What is its recorded self-splicing fitness (ln)?
Reply: -2.41

Task item: Using the record for UUGAAGCAAUAUUACGAGCA , report its self-splicing fitness (ln).
Reply: 0.224

Task item: Given the entry UCCUAGCAAUAUUACGUAUG , report its measured self-splicing fitness (ln).
Reply: -2.62

Task item: Record request: self-splicing fitness (ln) value, item GUAAAGCAAUAUUACGCAAG
Reply: -0.51

Task item: Please report the recorded self-splicing fitness (ln) for CGUUAGCAAUAUUACGCGAC .
Reply: -1.84

Task item: Field request: self-splicing fitness (ln) | item: CGUUAGCAAUAUUACGAUUG
Reply: -0.316

Task item: Data request, read-out self-splicing fitness (ln), for AGGGAGCAAUAUUACGCAGG
Reply: -0.965

Task item: Name the reported self-splicing fitness (ln) value associated with the sequence UAAGAGCAAUAUUACGCGUG
Reply: -1.88

Task item: State the recorded self-splicing fitness (ln) for this entry: AUCUAGCAAUAUUACGGGAG
Reply: -0.293

Task item: Requested field: self-splicing fitness (ln). Item: GCUGAGCAAUAUUACGACUA
Reply: -1.72

Task item: Please report the recorded self-splicing fitness (ln) for UGUAAGCAAUAUUACGACAU .
Reply: -0.831

Task item: For AGCUAGCAAUAUUACGAUCG , what is its reported self-splicing fitness (ln)?
Reply: -0.102

Task item: Entry AUGAAGCAAUAUUACGCCCC has what self-splicing fitness (ln)?
Reply: 0.00961

Task item: Which measured self-splicing fitness (ln) value corresponds to AAGCAGCAAUAUUACGUUGU ?
Reply: -2.31

Task item: Item under review: AACGAGCAAUAUUACGGCAG . Reported self-splicing fitness (ln)?
Reply: -3.6

Task item: Item CUCCAGCAAUAUUACGACAA has what recorded self-splicing fitness (ln)?
Reply: -2.29

Task item: Look at this sequence and give its reported self-splicing fitness (ln). GUAUAGCAAUAUUACGAAAG
Reply: -2.06

Task item: Which self-splicing fitness (ln) is reported for this sequence? UUGUAGCAAUAUUACGUUCU
Reply: -1.69

Task item: If you can, please state the reported self-splicing fitness (ln) value of AUGCAGCAAUAUUACGUUCA .
Reply: -0.74

Task item: Would you kindly share the measured self-splicing fitness (ln) for GUAAAGCAAUAUUACGCUGA ?
Reply: -0.903

Task item: Data request, read-out self-splicing fitness (ln), for AUGGAGCAAUAUUACGUGUU
Reply: -3.73

Task item: Dear colleague, I am looking for the recorded self-splicing fitness (ln) of the following sequence: UUAUAGCAAUAUUACGCGUA
Reply: -1.17

Task item: Recorded self-splicing fitness (ln) for UGUAAGCAAUAUUACGAUAA , please?
Reply: 0.257

Task item: What value of self-splicing fitness (ln) has been recorded for this entry: GAAUAGCAAUAUUACGUCUG
Reply: -0.674

Task item: What does the data say about its self-splicing fitness (ln)? Entry: CUAAAGCAAUAUUACGUCCU
Reply: -1.92

Task item: Find the recorded self-splicing fitness (ln) belonging to UUUCAGCAAUAUUACGCCAG and report it.
Reply: -0.498

Task item: Can you look up the measured self-splicing fitness (ln) of UUUGAGCAAUAUUACGAGAA for me?
Reply: -2.17

Task item: Need self-splicing fitness (ln) of UGAUAGCAAUAUUACGGACG , thanks.
Reply: -0.181

Task item: Quick check: self-splicing fitness (ln) of GAAAAGCAAUAUUACGGUUA ?
Reply: -0.0141

Task item: I am curious: what self-splicing fitness (ln) value has been reported for UACUAGCAAUAUUACGGAGU ?
Reply: -3.25

Task item: Entry AUUUAGCAAUAUUACGAUUC : reported self-splicing fitness (ln) = ?
Reply: -0.798

Task item: Could you share which self-splicing fitness (ln) value was measured for GCAAAGCAAUAUUACGAAGG ?
Reply: -0.499

Task item: // lookup self-splicing fitness (ln) for GUUAAGCAAUAUUACGUCGC
Reply: -1.83

Task item: So what does the record say about self-splicing fitness (ln) for CCGAAGCAAUAUUACGAACA ?
Reply: -2.58

Task item: I am curious: what self-splicing fitness (ln) value has been reported for CUGAAGCAAUAUUACGAACG ?
Reply: 0.661

Task item: What value of measured self-splicing fitness (ln) is listed for AAUCAGCAAUAUUACGCUCA ?
Reply: 0.323

Task item: Given the sequence AGGGAGCAAUAUUACGGCGG , what is its reported self-splicing fitness (ln)?
Reply: -2.73

Task item: What does the data say about its self-splicing fitness (ln)? Entry: UUUGAGCAAUAUUACGUUAA
Reply: -1.57
